Values compiled from ChEMBL document CHEMBL1154970.

assay: Plasma concentration in nude mouse transplanted with recombinant TEL-JAK2 expressing BA/F3 cells at 10 mg/kg, po dosed on day 10 of transplantation measured after 6 hrs; format: ADME, organism-based, BaF3; set-up: dose 10 mg/kg, route oral
This listing pairs molecules with measured concentration at 6 h.

{"given_smiles": "Cc1cnc(Nc2cc(N3CCOCC3)nc(N[C@@H](C)c3ncc(F)cn3)n2)s1", "concentration at 6 h, ng/mL": 146}
{"given_smiles": "Cc1cnc(Nc2cc(N3CCOCC3)nc(N[C@@H](C)c3ccc(F)cn3)n2)s1", "concentration at 6 h, ng/mL": 55}
{"given_smiles": "Cc1cnc(Nc2nc(N[C@@H](C)c3ncc(F)cn3)nc(N3CCOCC3)c2F)s1", "concentration at 6 h, ng/mL": 95}

---

biological target: Tyrosine-protein kinase JAK2 (Homo sapiens, UniProt O60674); experiment: Inhibition of recombinant JAK2 kinase in presence of 5 mM ATP
Sequence (O60674 whole entry): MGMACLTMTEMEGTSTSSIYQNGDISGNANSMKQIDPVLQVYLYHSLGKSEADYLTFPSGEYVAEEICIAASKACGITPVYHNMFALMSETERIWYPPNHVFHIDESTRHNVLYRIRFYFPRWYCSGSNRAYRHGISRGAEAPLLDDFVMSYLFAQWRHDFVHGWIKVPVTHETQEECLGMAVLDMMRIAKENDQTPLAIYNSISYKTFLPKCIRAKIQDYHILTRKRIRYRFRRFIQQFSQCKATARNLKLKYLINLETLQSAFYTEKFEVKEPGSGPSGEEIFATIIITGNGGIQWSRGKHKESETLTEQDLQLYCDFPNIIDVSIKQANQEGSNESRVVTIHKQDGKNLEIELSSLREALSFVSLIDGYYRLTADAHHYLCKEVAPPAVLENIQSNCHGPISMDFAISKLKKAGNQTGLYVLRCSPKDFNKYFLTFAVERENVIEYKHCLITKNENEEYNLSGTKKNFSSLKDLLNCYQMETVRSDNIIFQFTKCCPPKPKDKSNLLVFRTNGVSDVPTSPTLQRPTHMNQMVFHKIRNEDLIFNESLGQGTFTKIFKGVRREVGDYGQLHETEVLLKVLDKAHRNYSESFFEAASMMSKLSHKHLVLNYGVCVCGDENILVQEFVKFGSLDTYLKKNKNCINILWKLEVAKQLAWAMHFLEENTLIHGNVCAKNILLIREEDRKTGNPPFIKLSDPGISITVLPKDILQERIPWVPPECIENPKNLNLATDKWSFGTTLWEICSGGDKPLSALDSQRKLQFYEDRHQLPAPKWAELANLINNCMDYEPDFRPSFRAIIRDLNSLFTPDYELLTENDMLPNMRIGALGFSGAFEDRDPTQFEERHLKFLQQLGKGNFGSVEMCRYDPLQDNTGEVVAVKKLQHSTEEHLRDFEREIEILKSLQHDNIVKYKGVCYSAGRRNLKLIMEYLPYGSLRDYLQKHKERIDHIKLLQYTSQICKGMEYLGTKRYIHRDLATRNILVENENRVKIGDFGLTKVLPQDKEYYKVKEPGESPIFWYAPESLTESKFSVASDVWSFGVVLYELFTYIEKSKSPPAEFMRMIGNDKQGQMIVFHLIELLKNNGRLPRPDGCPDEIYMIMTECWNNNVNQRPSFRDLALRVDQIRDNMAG

{"given_smiles": "COc1cc(Nc2ncc(C)s2)nc(N[C@@H](C)c2ncc(F)cn2)n1", "IC50": "< 3 nM"}
{"given_smiles": "Cc1cnc(Nc2cc(N3CCN(C)CC3)nc(N[C@@H](C)c3ccc(F)cn3)n2)s1", "IC50": "< 3 nM"}
{"given_smiles": "Cc1cnc(Nc2cc(N3CCOCC3)nc(N[C@@H](C)c3ncc(F)cn3)n2)s1", "IC50": "3 nM"}
{"given_smiles": "C[C@H](Nc1nc(Nc2ncc(C#N)s2)cc(N2CCOCC2)n1)c1ccc(F)cn1", "IC50": "< 3 nM"}
{"given_smiles": "Cc1cnc(Nc2cncc(N[C@@H](C)c3ncc(F)cn3)n2)s1", "IC50": "49 nM"}

---

Parameter 'readout' = IC50; parameter 'system' = Voltage-gated inwardly rectifying potassium channel KCNH2 (Homo sapiens).
Sequence (Q12809 whole entry): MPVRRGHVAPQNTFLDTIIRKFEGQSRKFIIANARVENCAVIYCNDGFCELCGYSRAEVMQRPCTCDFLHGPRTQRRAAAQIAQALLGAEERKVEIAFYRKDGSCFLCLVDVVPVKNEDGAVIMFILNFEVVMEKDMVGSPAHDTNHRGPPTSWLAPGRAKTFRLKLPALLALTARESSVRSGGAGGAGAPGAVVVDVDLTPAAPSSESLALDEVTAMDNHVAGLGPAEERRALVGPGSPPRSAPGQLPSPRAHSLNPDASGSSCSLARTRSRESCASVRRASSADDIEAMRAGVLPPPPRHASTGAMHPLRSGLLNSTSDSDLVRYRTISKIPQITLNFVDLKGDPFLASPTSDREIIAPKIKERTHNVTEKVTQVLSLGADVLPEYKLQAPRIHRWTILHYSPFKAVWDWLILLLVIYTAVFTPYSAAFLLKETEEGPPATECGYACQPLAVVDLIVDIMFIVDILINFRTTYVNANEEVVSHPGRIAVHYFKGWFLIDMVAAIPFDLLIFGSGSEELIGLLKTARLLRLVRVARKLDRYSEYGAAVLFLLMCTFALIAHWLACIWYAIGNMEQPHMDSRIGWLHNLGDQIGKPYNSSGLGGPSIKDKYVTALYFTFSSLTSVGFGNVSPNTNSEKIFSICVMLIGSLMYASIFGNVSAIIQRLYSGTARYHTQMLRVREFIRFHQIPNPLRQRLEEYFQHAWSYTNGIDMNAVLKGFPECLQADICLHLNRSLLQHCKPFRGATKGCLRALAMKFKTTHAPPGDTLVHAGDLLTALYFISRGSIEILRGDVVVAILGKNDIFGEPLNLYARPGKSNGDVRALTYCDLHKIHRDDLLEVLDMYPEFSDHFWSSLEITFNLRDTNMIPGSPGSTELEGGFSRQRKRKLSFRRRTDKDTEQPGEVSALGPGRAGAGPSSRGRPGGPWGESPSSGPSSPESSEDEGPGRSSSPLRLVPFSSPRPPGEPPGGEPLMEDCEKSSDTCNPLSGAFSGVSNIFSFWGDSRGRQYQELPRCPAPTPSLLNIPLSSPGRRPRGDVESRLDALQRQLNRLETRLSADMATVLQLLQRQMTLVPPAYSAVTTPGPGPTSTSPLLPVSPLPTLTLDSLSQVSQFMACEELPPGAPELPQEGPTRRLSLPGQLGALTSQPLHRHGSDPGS
experimental_readout: IC50 (µM)

{"given_smiles": "Cc1cnc(Nc2cc(N3CCOCC3)nc(N[C@@H](C)c3ccc(F)cn3)n2)s1", "lt_gt_eq": "=", "observed_measurement": 12}
{"given_smiles": "Cc1cnc(Nc2cc(N3CCN(C)CC3)nc(N[C@@H](C)c3ccc(F)cn3)n2)s1", "lt_gt_eq": "=", "observed_measurement": 13}
{"given_smiles": "Cc1cnc(Nc2cc(N3CCOCC3)nc(N[C@@H](C)c3ncc(F)cn3)n2)s1", "lt_gt_eq": ">", "observed_measurement": 32}
{"given_smiles": "COc1cc(Nc2ncc(C)s2)nc(N[C@@H](C)c2ncc(F)cn2)n1", "lt_gt_eq": ">", "observed_measurement": 32}

---

biological target: Tyrosine-protein kinase JAK2 (Homo sapiens, UniProt O60674); assay: Inhibition of recombinant JAK2 kinase in presence of ATP
experimental_readout: IC50

{"given_smiles": "Cc1cnc(Nc2cncc(N[C@@H](C)c3ncc(F)cn3)n2)s1", "observed_measurement": "4 nM"}
{"given_smiles": "Cc1cc(Nc2cncc(N[C@@H](C)c3ncc(F)cn3)n2)n[nH]1", "observed_measurement": "< 3 nM"}

---

microsomal CLint at 2 µM values by entry
experiment: Intrinsic clearance in rat liver microsomes at 2 uM by LC-MS/MS; format: ADME, Microsome

{"given_smiles": "C[C@H](Nc1nc(Nc2ncc(C#N)s2)cc(N2CCOCC2)n1)c1ncc(F)cn1", "microsomal CLint at 2 µM, µL/min/mg": 41}
{"given_smiles": "Cc1cnc(Nc2cncc(N[C@@H](C)c3ncc(F)cn3)n2)s1", "microsomal CLint at 2 µM, µL/min/mg": 52}
{"given_smiles": "C[C@H](Nc1nc(Nc2ncc(C#N)s2)cc(N2CCOCC2)n1)c1ccc(F)cn1", "microsomal CLint at 2 µM, µL/min/mg": 31}

---

Reported microsomal CLint at 2 µM values follow for various compounds
assay: Intrinsic clearance in rat liver microsomes at 2 uM by LC-MS/MS; assay type: ADME, Microsome
experimental_readout: microsomal CLint at 2 µM (µL/min/mg)

{"given_smiles": "Cc1cnc(Nc2cc(N3CCOCC3)nc(N[C@@H](C)c3ccc(F)cn3)n2)s1", "lt_gt_eq": ">", "observed_measurement": 120}
{"given_smiles": "COc1cc(Nc2ncc(C)s2)nc(N[C@@H](C)c2ncc(F)cn2)n1", "lt_gt_eq": ">", "observed_measurement": 100}
{"given_smiles": "Cc1cnc(Nc2cc(N3CCN(C)CC3)nc(N[C@@H](C)c3ccc(F)cn3)n2)s1", "lt_gt_eq": "=", "observed_measurement": 220}
{"given_smiles": "Cc1cc(Nc2cncc(N[C@@H](C)c3ncc(F)cn3)n2)n[nH]1", "lt_gt_eq": "<", "observed_measurement": 4}
{"given_smiles": "Cc1cnc(Nc2cc(N3CCOCC3)nc(N[C@@H](C)c3ncc(F)cn3)n2)s1", "lt_gt_eq": "=", "observed_measurement": 84}

---

The entries below come with measured clearance values attached.
assay: Clearance in Han Wistar rat at 3 mg/kg, iv; type: ADME, organism-based; parameters: dose 3 mg/kg, route intravenous; settings: in vivo

{"given_smiles": "Cc1cnc(Nc2cc(N3CCOCC3)nc(N[C@@H](C)c3ncc(F)cn3)n2)s1", "unit_abbreviation": "mL/min/kg", "clearance": 32}
{"given_smiles": "Cc1cnc(Nc2cc(N3CCOCC3)nc(N[C@@H](C)c3ccc(F)cn3)n2)s1", "unit_abbreviation": "mL/min/kg", "clearance": 38}
{"given_smiles": "Cc1cnc(Nc2cc(N3CCN(C)CC3)nc(N[C@@H](C)c3ccc(F)cn3)n2)s1", "unit_abbreviation": "mL/min/kg", "clearance": 80}
{"given_smiles": "Cc1cc(Nc2cncc(N[C@@H](C)c3ncc(F)cn3)n2)n[nH]1", "unit_abbreviation": "mL/min/kg", "clearance": 14}

---

assay: Half life in Han Wistar rat at 3 mg/kg, iv; type: ADME, organism-based; set-up: dose 3 mg/kg, route intravenous; settings: in vivo

{"given_smiles": "Cc1cnc(Nc2cc(N3CCN(C)CC3)nc(N[C@@H](C)c3ccc(F)cn3)n2)s1", "half-life": "1.3 h"}
{"given_smiles": "Cc1cnc(Nc2cc(N3CCOCC3)nc(N[C@@H](C)c3ncc(F)cn3)n2)s1", "half-life": "1.3 h"}
{"given_smiles": "Cc1cnc(Nc2cc(N3CCOCC3)nc(N[C@@H](C)c3ccc(F)cn3)n2)s1", "half-life": "1.2 h"}
{"given_smiles": "Cc1cc(Nc2cncc(N[C@@H](C)c3ncc(F)cn3)n2)n[nH]1", "half-life": "1.4 h"}

---

// reported solubility for each item listed
assay: Solubility of the compound; format: physicochemical
experimental_readout: solubility

{"given_smiles": "Cc1cnc(Nc2cncc(N[C@@H](C)c3ncc(F)cn3)n2)s1", "observed_measurement": "> 1000 µM"}
{"given_smiles": "Cc1cc(Nc2cncc(N[C@@H](C)c3ncc(F)cn3)n2)n[nH]1", "observed_measurement": "> 1000 µM"}

---

assay: Volume of distribution at steady state in Han Wistar rat at 3 mg/kg, iv; type: ADME, organism-based; design: dose 3 mg/kg, route intravenous; details: in vivo, read-out: Vdss

{"given_smiles": "Cc1cnc(Nc2cc(N3CCOCC3)nc(N[C@@H](C)c3ccc(F)cn3)n2)s1", "Vd [L/kg]": 2.8}
{"given_smiles": "Cc1cc(Nc2cncc(N[C@@H](C)c3ncc(F)cn3)n2)n[nH]1", "Vd [L/kg]": 1.1}
{"given_smiles": "Cc1cnc(Nc2cc(N3CCN(C)CC3)nc(N[C@@H](C)c3ccc(F)cn3)n2)s1", "Vd [L/kg]": 8.5}
{"given_smiles": "Cc1cnc(Nc2cc(N3CCOCC3)nc(N[C@@H](C)c3ncc(F)cn3)n2)s1", "Vd [L/kg]": 2.3}

---

Listing: concentration at 2 h of selected compounds
experiment: Plasma concentration in nude mouse transplanted with recombinant TEL-JAK2 expressing BA/F3 cells at 10 mg/kg, po dosed on day 10 of transplantation measured after 2 hrs; type: ADME, organism-based, BaF3; set-up: dose 10 mg/kg, route oral
experimental_readout: concentration at 2 h (ng/mL)

{"given_smiles": "Cc1cnc(Nc2cc(N3CCOCC3)nc(N[C@@H](C)c3ncc(F)cn3)n2)s1", "observed_measurement": 715}
{"given_smiles": "Cc1cnc(Nc2nc(N[C@@H](C)c3ncc(F)cn3)nc(N3CCOCC3)c2F)s1", "observed_measurement": 219}
{"given_smiles": "Cc1cnc(Nc2cc(N3CCOCC3)nc(N[C@@H](C)c3ccc(F)cn3)n2)s1", "observed_measurement": 126}
